Experiment: In vitro permeation of 5-Fluorouracil through fractional laser treated ex vivo human skin (Example 8)
Type: in vitro ADME
Conditions: 10 mJ, 60 μm spot size, 2000 MTZ/cm2; 0.5% (w/v) solution; n=6
property_name: Retention, Ratio ± Standard Deviation

Task: Suppose we examine the compound O=c1[nH]cc(F)c(=O)[nH]1 [5-Fluorouracil] ; what Retention, Ratio ± Standard Deviation value has been reported?
Result: 2.4
